- protocol.summary: Terminal half life in C57BL/6 mouse at 9.15 umol/kg, iv by LC-MS/MS analysis
- Format: ADME, organism-based
- test.settings: in vivo, read-out: beta t1/2 (converted)
readout: half-life (h)
Answer format: numeric, h implied, no suffix.

Please report the recorded half-life for `CNC(=O)COc1cc(C)c(Cc2ccc(O)c(C(C)C)c2)c(C)c1` .
8.8

###

- protocol.summary: Prodrug activation in C57BL/6 mouse brain assessed as FAAH-mediated sobetirome formation at 3.05 umol/kg, ip after 1 hr by LC-MS/MS analysis
- Format: organism-based
- test.settings: in vivo
readout: Drug uptake (ng/g)
The response must be a number in ng/g with no trailing unit.

# annotated cases, reported Drug uptake shown
Drug uptake lookup needed for `Cc1cc(OCC(=O)NCCF)cc(C)c1Cc1ccc(O)c(C(C)C)c1` , thanks.
107.1

GET /values?readout=Drug uptake&item= `Cc1cc(OCC(=O)Nc2ccccc2O)cc(C)c1Cc1ccc(O)c(C(C)C)c1`
7.4

Look at this molecule and give its reported Drug uptake. `Cc1cc(OCC(=O)NCCc2ccccc2)cc(C)c1Cc1ccc(O)c(C(C)C)c1`
11.3

Further cases:
Given the molecule `Cc1cc(OCC(N)=O)cc(C)c1Cc1ccc(O)c(C(C)C)c1` , what is its reported Drug uptake?
93.9

Value lookup for Drug uptake; key = `Cc1cc(OCC(=O)Nc2cccc(F)c2)cc(C)c1Cc1ccc(O)c(C(C)C)c1`
15.4
